study-target: T1, Human LILRB1 on transiently transfected HEK293-6E cells (human, UniProt Q8NHL6 24-650)
T1 construct: whole, on cells; also called hLILRB1
T1 sequence (Q8NHL6 24-650): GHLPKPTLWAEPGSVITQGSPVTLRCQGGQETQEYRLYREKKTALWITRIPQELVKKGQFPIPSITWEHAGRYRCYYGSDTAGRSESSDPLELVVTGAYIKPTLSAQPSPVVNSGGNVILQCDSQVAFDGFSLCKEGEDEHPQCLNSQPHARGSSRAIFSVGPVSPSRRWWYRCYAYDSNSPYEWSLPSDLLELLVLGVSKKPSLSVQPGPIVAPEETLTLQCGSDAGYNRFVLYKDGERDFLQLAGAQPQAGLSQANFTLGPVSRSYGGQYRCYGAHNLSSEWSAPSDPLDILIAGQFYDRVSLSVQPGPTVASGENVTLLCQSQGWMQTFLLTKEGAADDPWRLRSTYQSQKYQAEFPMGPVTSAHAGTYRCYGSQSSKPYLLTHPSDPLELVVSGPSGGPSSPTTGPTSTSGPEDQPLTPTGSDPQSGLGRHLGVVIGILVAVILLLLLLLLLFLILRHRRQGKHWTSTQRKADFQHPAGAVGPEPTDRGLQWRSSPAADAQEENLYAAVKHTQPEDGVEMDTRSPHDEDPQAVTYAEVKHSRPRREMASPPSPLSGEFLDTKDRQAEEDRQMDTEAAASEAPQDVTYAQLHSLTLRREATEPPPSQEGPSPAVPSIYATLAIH
test-summary: flow cytometry, transiently transfected HEK293-6E cells
property-label: Bmax (MFI)
Numbers only here, please. The scale is MFI.

Known results for binders:
Any idea what Bmax (MFI) was measured for B2H1-11 (antibody, V domains shown, Humanized variant, human IgG1 / kappa) VH: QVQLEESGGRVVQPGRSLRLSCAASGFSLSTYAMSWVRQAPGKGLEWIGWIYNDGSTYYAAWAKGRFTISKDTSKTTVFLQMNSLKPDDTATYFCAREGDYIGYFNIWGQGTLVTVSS VL: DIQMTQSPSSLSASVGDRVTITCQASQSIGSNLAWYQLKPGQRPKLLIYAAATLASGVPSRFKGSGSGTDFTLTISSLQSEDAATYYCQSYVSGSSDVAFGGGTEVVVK ? 39.8

Now consider B2H1-55 (antibody, V domains shown, Humanized variant, human IgG1 / kappa; also called humanized variant B2H1-55; humanized LILRB2 antibody B2H1-55) VH: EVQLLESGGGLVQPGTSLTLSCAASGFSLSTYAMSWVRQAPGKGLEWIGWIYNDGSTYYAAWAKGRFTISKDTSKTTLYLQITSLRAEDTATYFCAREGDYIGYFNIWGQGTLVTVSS VL: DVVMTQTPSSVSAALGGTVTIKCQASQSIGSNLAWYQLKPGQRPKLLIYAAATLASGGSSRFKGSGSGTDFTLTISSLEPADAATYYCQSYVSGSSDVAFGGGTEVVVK . 41.4

Continuing:
Any idea what Bmax (MFI) was measured for B2H1-52 (antibody, V domains shown, Humanized variant, human IgG1 / kappa) VH: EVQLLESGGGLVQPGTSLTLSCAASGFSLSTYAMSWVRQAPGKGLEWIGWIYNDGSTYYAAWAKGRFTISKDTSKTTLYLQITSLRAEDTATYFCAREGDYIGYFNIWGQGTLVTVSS VL: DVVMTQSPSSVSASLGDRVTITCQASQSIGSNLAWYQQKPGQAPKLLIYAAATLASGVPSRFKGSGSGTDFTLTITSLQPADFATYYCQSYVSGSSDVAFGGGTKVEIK ? 42.3
